// provenance: patent US20090202499A1

targetDesc: T1, purified HLA-B*0702 (human)
T1 construct: Purified MHC class I molecule incubated with human b2m; complexes captured with W6/32 antibody; also called HLA-B7; immobilized purified HLA-B7 molecule
assayComment: competition radioimmunoassay on purified HLA, radiolabeled standard peptide
endpointLabel: IC50 (nM)

- binder: "LPGTTLTAL (Synthetic 9mer peptide of human telomerase reverse transcriptase) [hTRT peptide p1107 (LPGTTLTAL)]"
  endpointLabel: "IC50"
  measurementUnit: "nM"
  experimentalResult: 0.96
- binder: "LPSDFKTIL (Synthetic 9mer peptide of human telomerase reverse transcriptase) [hTRT peptide p1123 (LPSDFKTIL)]"
  endpointLabel: "IC50"
  measurementUnit: "nM"
  experimentalResult: 11
- binder: "FVRACLRRL (Synthetic 9mer peptide of human telomerase reverse transcriptase) [hTRT peptide p464 (FVRACLRRL)]"
  endpointLabel: "IC50"
  measurementUnit: "nM"
  experimentalResult: 4.1
